Provide the reported DC50 of each item.
target: IRAK4 (Homo sapiens, UniProt Q9NWZ3); construct: Degradation of IRAK4 in OCI-LY10 was quantitatively measured using Meso Scale Discovery technology; endogenous in cells; host or cells: OCI-LY10; assay: IRAK4 MSD Degradation in OCI-LY10; type: cell-based; conditions: OCI-LY10 cells, 4 hrs incubation, MSD; read-out: IRAK4 degradation in OCI-LY10 at 4 hrs: DC50
Sequence (Q9NWZ3 whole entry): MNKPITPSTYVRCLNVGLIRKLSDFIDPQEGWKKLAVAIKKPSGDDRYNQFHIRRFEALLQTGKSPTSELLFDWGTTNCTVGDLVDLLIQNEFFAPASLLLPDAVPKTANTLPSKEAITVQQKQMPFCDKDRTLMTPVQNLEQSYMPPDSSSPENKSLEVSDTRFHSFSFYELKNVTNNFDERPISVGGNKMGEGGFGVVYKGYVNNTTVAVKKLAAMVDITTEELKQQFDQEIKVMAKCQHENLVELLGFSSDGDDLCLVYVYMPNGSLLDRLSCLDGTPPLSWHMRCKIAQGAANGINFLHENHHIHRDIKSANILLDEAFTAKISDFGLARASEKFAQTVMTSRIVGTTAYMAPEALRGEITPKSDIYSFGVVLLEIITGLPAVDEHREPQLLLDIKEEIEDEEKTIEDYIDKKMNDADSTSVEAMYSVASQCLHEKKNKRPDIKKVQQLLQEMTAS

Item COc1cc2nn([C@H]3CC[C@H](CN4CCC5(CC4)CC(N(C)c4cccc6c4C(=O)N(C4CCC(=O)NC4=O)C6=O)C5)CC3)cc2cc1NC(=O)c1cccc(C(F)(F)F)n1 (stereo partly drawn) : provide DC50
> 200 nM

Item Cn1c(=O)n(C2CCC(=O)NC2=O)c2cccc(N3CCN([C@@H]4CCN(C[C@H]5CC[C@H](n6cc(NC(=O)c7cnn8ccc(N9C[C@H]%10C[C@@H]9CO%10)nc78)c(C(F)F)n6)CC5)CC4(F)F)CC3)c21 (stereo partly drawn) [I-720] : provide DC50
> 200 nM

Item CN1CCN(c2ccn3ncc(C(=O)Nc4cn([C@H]5CC[C@H](CN6CCN(CC#Cc7cccc8c7n(C)c(=O)n8C7CCC(=O)NC7=O)CC6)CC5)nc4C(F)F)c3n2)CC1 (stereo partly drawn) : provide DC50
> 200 nM

Item O=C1CCN(c2cncc3cc(C4=CCN(C[C@H]5CC[C@H](n6cc7cc(NC(=O)c8cccc(C(F)(F)F)n8)ccc7n6)CC5)CC4(F)F)ccc23)C(=O)N1 : provide DC50
> 200 nM

Item Cc1ccc(-c2nn([C@H]3CC[C@H](CN4CCC(OCC#Cc5cccc6c5n(C)c(=O)n6C5CCC(=O)NC5=O)CC4)CC3)cc2NC(=O)c2cnn3cccnc23)nc1 (stereo partly drawn) [I-170] : provide DC50
> 200 nM

Item Cn1c(=O)n(C2CCC(=O)NC2=O)c2cccc(C3CCN(C[C@]4(O)CC[C@@H](n5cc6cc(NC(=O)c7cccc(C(F)(F)F)n7)ccc6n5)CC4)CC3)c21 (stereo partly drawn) [I-711] : provide DC50
> 200 nM

Item Cn1c(=O)n(C2CCC(=O)NC2=O)c2ccc(F)c(N3CC(CN4CCN(C[C@H]5CC[C@H](n6cc(NC(=O)c7cnn8ccc(N9C[C@H]%10C[C@@H]9CO%10)nc78)c(C(F)F)n6)CC5)CC4)C3)c21 (stereo partly drawn) : provide DC50
> 200 nM

Item Cc1cccc(C(=O)Nc2cc3cn([C@H]4CC[C@H](CN5CC[C@H](c6cccc7c6n(C)c(=O)n7C6CCC(=O)NC6=O)[C@H](F)C5)CC4)nc3cc2C(C)(C)O)n1 (stereo partly drawn) : provide DC50
> 200 nM

Item Cn1c(=O)n(C2CCC(=O)NC2=O)c2cccc(C#CCO[C@@H]3CCN(C[C@H]4CC[C@H](n5cc(NC(=O)c6cnn7ccc(N8C[C@H]9C[C@@H]8CO9)nc67)c(C(F)F)n5)CC4)C3)c21 (stereo partly drawn) : provide DC50
10 to 100 nM

Item Cn1c(=O)n(C2CCC(=O)NC2=O)c2cccc(C#CCN3CCN(C[C@H]4CC[C@H](n5cc(NC(=O)c6cnn7ccc(C(C)(C)C)nc67)c(C(F)F)n5)CC4)CC3)c21 (stereo partly drawn) : provide DC50
> 200 nM

Item Cn1c(=O)n(C2CCC(=O)NC2=O)c2ccc(C3CCN(C[C@H]4CC[C@H](n5cc6cc(NC(=O)c7cccc(C(F)(F)F)n7)c(C(F)F)cc6n5)CC4)CC3(F)F)cc21 (stereo partly drawn) : provide DC50
> 200 nM

Item COc1ccc2c(c1C#CCO[C@@H]1CCN(C[C@H]3C[C@H](n4cc(NC(=O)c5cnn6ccc(N7C[C@H]8C[C@@H]7CO8)nc56)c(C(F)F)n4)C3)C[C@@H]1F)n(C)c(=O)n2C1CCC(=O)NC1=O (stereo partly drawn) : provide DC50
< 10 nM

Item C[C@H]1CN(c2ccn3ncc(C(=O)Nc4cn([C@H]5CC[C@H](CN(C)C6CN(c7cccc8c7n(C)c(=O)n8C7CCC(=O)NC7=O)C6)CC5)nc4C(F)F)c3n2)CCO1 (stereo partly drawn) : provide DC50
> 200 nM

Item Cn1c(=O)n(C2CCC(=O)NC2=O)c2cccc(CN3CC4(CCN(Cc5ccc(-n6cc(NC(=O)c7cnn8ccc(N9C[C@H]%10C[C@@H]9CO%10)nc78)c(C(F)F)n6)cc5)CC4)C3)c21 (stereo partly drawn) [I-402] : provide DC50
> 200 nM

Item CN(C[C@H]1CC[C@H](n2cc3cc(NC(=O)c4cccc(C(F)(F)F)n4)ccc3n2)CC1)C1CCN(c2cccc3c2n(C)c(=O)n3C2CCC(=O)NC2=O)CC1(F)F (stereo partly drawn) : provide DC50
> 200 nM

Item C[C@@H]1CN(CCCc2cccc3c2n(C)c(=O)n3C2CCC(=O)NC2=O)CCN1C[C@H]1CC[C@H](n2cc(NC(=O)c3cnn4ccc(N5C[C@H]6C[C@@H]5CO6)nc34)c(C(F)F)n2)CC1 (stereo partly drawn) : provide DC50
> 200 nM

Item COc1nn([C@H]2CC[C@H](CN3CCN(CC#Cc4cccc5c4n(C)c(=O)n5C4CCC(=O)NC4=O)CC3)CC2)cc1NC(=O)c1cnn2ccc(N3C[C@H]4C[C@@H]3CO4)nc12 (stereo partly drawn) : provide DC50
100 to 200 nM

Item CN(C[C@H]1CC[C@H](n2cc(NC(=O)c3cnn4ccc(N5C[C@H]6C[C@@H]5CO6)nc34)c(C(F)F)n2)CC1)C1CN(c2cccc3c2n(C)c(=O)n3C2CCC(=O)NC2=O)C1 (stereo partly drawn) : provide DC50
> 200 nM
